Tested on: Escherichia coli TOP10
assay.comment: shrunken log2 fold change of peptide-encoding DNA abundance (4.5 h post-induction vs induction); higher = less antimicrobial activity (less host growth inhibition)
condition.description: time post-induction: 4.5 h; library: site-saturation at positions 5, 18, 19, 20
Provide the reported shrunken log2 fold change of each item.
// return just the number, without any unit appended

Ask: Report shrunken log2 fold change under test system Escherichia coli TOP10 for RRIRHRPPRLPRPRPRPCFIPRP .
Result: -0.385

Ask: Under Escherichia coli TOP10, report shrunken log2 fold change for RRIRGRPPRLPRPRPRPKIAPRP
Result: 0.386

Ask: State shrunken log2 fold change (Escherichia coli TOP10) of RRIRQRPPRLPRPRPRPRFYPRP .
Result: -0.206

Ask: GET shrunken log2 fold change where system = Escherichia coli TOP10 and item = RRIRHRPPRLPRPRPRPGNFPRP
Result: -0.537

Ask: Lab note: record shrunken log2 fold change of RRIRFRPPRLPRPRPRPQSYPRP tested on Escherichia coli TOP10.
Result: -0.111

Ask: # return shrunken log2 fold change for RRIRMRPPRLPRPRPRPDITPRP , test system: Escherichia coli TOP10
Result: 2.12

Ask: Look up and report measured shrunken log2 fold change (Escherichia coli TOP10) for the following sequence: RRIRPRPPRLPRPRPRPHQKPRP
Result: -0.0717

Ask: Give Escherichia coli TOP10 shrunken log2 fold change for the following sequence: RRIRARPPRLPRPRPRPEKGPRP
Result: -0.0434

Ask: Give measured shrunken log2 fold change for RRIRVRPPRLPRPRPRPGMAPRP (Escherichia coli TOP10).
Result: 0.183

Ask: Return reported shrunken log2 fold change for target or system Escherichia coli TOP10, item RRIRKRPPRLPRPRPRPSLLPRP .
Result: -0.0176

Ask: Please look at RRIRRRPPRLPRPRPRPFNAPRP and tell me its recorded shrunken log2 fold change on Escherichia coli TOP10.
Result: -0.0138

Ask: Please look at RRIRDRPPRLPRPRPRPNMEPRP and tell me its recorded shrunken log2 fold change on Escherichia coli TOP10.
Result: 0.0616

Ask: # return shrunken log2 fold change for RRIRWRPPRLPRPRPRPVIEPRP , test system: Escherichia coli TOP10
Result: 0.0398

* * *

Kindly supply the reported shrunken log2 fold change values for the records listed here.
Tested on: Escherichia coli TOP10
assay.comment: shrunken log2 fold change of peptide-encoding DNA abundance (4.5 h post-induction vs induction); higher = less antimicrobial activity (less host growth inhibition)
condition.description: time post-induction: 4.5 h; library: site-saturation at positions 5, 18, 19, 20
Note: the reply should be a number with no unit written.

Ask: For the sequence RRIRWRPPRLPRPRPRPSQMPRP , report shrunken log2 fold change.
Result: -0.681

Ask: Provide only the value of recorded shrunken log2 fold change for RRIRSRPPRLPRPRPRPMIYPRP
Result: -0.257

Ask: Assign shrunken log2 fold change to the following record: RRIRKRPPRLPRPRPRPLGTPRP
Result: 0.388

Ask: Using known records, supply shrunken log2 fold change for RRIRRRPPRLPRPRPRPSGPPRP
Result: -0.0409

Ask: Note shrunken log2 fold change for the sequence shown: RRIRVRPPRLPRPRPRPWPNPRP
Result: 0.179

* * *

Tested on: Escherichia coli TOP10
assay.comment: shrunken log2 fold change of peptide-encoding DNA abundance (4.5 h post-induction vs induction); higher = less antimicrobial activity (less host growth inhibition)
condition.description: time post-induction: 4.5 h; library: site-saturation at positions 5, 18, 19, 20
property.label: shrunken log2 fold change
Kindly provide the number alone.

Ask: State, for Escherichia coli TOP10, measured shrunken log2 fold change of the sequence listed here: RRIRHRPPRLPRPRPRPTGMPRP
Result: 0.156

Ask: Name the recorded shrunken log2 fold change of RRIRIRPPRLPRPRPRPKYPPRP , assay system Escherichia coli TOP10.
Result: -0.121

Ask: State shrunken log2 fold change (Escherichia coli TOP10) of RRIRTRPPRLPRPRPRPLNHPRP .
Result: -0.204

Ask: State the measured shrunken log2 fold change (Escherichia coli TOP10) of RRIRLRPPRLPRPRPRPWNTPRP
Result: -0.444

Ask: Report shrunken log2 fold change under test system Escherichia coli TOP10 for RRIRTRPPRLPRPRPRPTGFPRP .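 Further: peptides expressed intracellularly from a pBAD plasmid library in pooled LB shake-flask culture, induced with 0.3% L-arabinose, DNA abundance read by NGS, three biological replicates, DESeq2 with apeglm shrinkage.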
Result: -0.0124
